Target protein (sequence): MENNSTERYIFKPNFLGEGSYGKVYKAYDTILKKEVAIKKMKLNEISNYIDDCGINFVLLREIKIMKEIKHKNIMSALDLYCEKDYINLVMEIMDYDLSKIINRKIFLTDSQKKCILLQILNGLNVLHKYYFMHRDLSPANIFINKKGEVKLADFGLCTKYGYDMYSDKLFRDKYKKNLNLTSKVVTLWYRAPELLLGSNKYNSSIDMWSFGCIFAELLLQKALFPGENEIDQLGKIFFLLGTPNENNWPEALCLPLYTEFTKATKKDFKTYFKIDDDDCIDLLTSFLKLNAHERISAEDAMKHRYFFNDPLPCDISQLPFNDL
Literature compilation of IC50 measurements on the protein given by its sequence.
measured metric: IC50 (µM)

Observe how each entry below is paired with its result.
smiles data: O=C1Nc2ccc([N+](=O)[O-])cc2/C1=C/c1ccccc1O
measurement target: the protein given by its sequence
measured metric: IC50
observed value: 35
//
smiles data: CC(=O)Nc1ccc(C(=O)/C=C/c2ccccc2)cc1
measurement target: the protein given by its sequence
measured metric: IC50
observed value: 17
//
smiles data: Cc1cc(C)c(NS(=O)(=O)c2ccc(Br)cc2)c(C)c1NS(=O)(=O)c1ccc(Br)cc1
measurement target: the protein given by its sequence
measured metric: IC50
observed value: 50.2
//
smiles data: O=S(=O)(Nc1ccccc1)c1cc(Cl)sc1Cl
measurement target: the protein given by its sequence
measured metric: IC50
observed value: 14.9
//
smiles data: COc1ccc(-c2nnc(N(CCO)CCO)o2)cc1
measurement target: the protein given by its sequence
measured metric: IC50
observed value: 35.8
//
smiles data: O=C1Nc2ccc([N+](=O)[O-])cc2C1=O
measurement target: the protein given by its sequence
measured metric: IC50
observed value: 5.9

1 = O=C(CBr)N(c1ccc(Cl)cc1)S(=O)(=O)c1cc(Cl)sc1Cl
2 = COc1ccc(S(=O)(=O)Nc2cccc(C(F)(F)F)c2)cc1
3 = O=C1Nc2ccc(Br)cc2/C1=C\C(=O)c1ccc(F)cc1
Place the items in sequence of falling IC50. Use the labels to give the ranking in the order requested. 2, 3, 1
(2: 48.4 µM, 3: 1.4 µM, 1: 0.8 µM)

* * *

Literature compilation of pIC50 measurements on the protein given by its sequence.
Sequence of the target: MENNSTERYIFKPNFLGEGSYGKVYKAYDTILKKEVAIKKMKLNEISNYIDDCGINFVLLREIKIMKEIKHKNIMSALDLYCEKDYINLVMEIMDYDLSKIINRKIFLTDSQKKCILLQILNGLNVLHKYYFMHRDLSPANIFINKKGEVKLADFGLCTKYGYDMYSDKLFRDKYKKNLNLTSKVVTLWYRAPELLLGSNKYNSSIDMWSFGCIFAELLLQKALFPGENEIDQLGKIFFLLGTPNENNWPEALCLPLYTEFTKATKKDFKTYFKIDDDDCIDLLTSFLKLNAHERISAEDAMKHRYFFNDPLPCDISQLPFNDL
pIC50: −log10 of the molar value.
measured metric: pIC50

1 = N#CC(NCC(O)c1ccccc1)c1ccc(Cl)c(Cl)c1 (configuration not stated)
2 = N#C/C(C(N)=O)=C1\C(=O)Nc2ccccc21
For the two items 1 and 2 , which reports the higher pIC50 value? Give the label of your selection. 1

I = COc1ccc(C(=O)/C=C/c2cccc3ccccc23)c(OC)c1
II = O=C1NC(=O)/C(=C2/C(=O)Nc3ccc(F)cc32)S1
III = O=C1Nc2ccccc2/C1=C/C(=O)c1ccccc1
IV = COc1ccc2c(c1)/C(=C1\SC(=S)NC1=O)C(=O)N2
Place the items in sequence of falling pIC50. Use the labels to give the ranking in the order requested. I, III, IV, II
(I: 5.89, III: 5.40, IV: 4.77, II: 4.52)

A = Cc1cccc(C)c1N(C(=O)CCl)S(=O)(=O)c1cc(Cl)sc1Cl
B = O=C1c2ccc(Cl)cc2-n2c1nc1ncccc1c2=O
// pick min by pIC50: A , B Give the label of your selection. A
